# tgt: human PTH1 receptor (Homo sapiens, UniProt Q03431)
# Sequence (Q03431 27-593): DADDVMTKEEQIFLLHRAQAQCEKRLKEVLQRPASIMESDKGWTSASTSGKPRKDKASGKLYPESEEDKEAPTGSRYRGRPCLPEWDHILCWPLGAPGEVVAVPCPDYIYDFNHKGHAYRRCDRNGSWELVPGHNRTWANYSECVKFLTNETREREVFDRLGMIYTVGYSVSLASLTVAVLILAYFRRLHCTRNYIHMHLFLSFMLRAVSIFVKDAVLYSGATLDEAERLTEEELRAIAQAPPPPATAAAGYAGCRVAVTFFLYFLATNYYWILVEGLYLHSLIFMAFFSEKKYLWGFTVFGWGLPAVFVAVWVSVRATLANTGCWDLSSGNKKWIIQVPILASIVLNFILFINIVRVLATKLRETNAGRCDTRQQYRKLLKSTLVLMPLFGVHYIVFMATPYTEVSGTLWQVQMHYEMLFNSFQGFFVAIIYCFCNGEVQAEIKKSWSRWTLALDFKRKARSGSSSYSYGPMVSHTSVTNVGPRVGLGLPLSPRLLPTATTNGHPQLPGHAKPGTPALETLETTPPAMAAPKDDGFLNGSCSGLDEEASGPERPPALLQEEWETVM
# assay: In vitro cAMP signal activity in HKRK-B7 cells (LLC-PK1 cells overexpressing the human PTH1 receptor)
# Format: cell-based
# measurementConditions: HKRK-B7 cells; compound at 1×10^−3 M; cAMP produced as percentage of that produced by hPTH(1-34) at 100 nM
Structures can show the parent of a compound that is named as a salt.
measuredAttribute: cAMP production activity (%)
Give just the number in %; leave the unit off.

According to the records, this compound [2H]C([2H])([2H])C([2H])([2H])C([2H])([2H])C([2H])([2H])Oc1cc(C2=NC3(CCN(S(=O)(=O)/C=C/c4c(C)cc(C(=O)N5CCC(C)(O)CC5)cc4C)CC3)C(=O)N2)ccc1Cl displays cAMP production activity (%) of 88

Summary for this compound, Cc1cc(C(=O)N2CCC(C)(O)CC2)cc(C)c1/C=C/S(=O)(=O)N1CCC2(CC1)N=C(c1ccc(F)c(C(F)(F)F)c1)NC2=O : cAMP production activity (%) is 87

Lab note: measured cAMP production activity (%) of Cc1cc(N(C)C(N)=O)cc(C)c1CCS(=O)(=O)N1CCC2(CC1)N=C(C(C)(F)F)NC2=O was 79

cAMP production activity (%) measured on Cc1cc(N(C)C(N)=O)cc(C)c1/C=C/S(=O)(=O)N1CCC2(CC1)N=C(CCCCCCCCCCCCCC(N)=O)NC2=O = 81

response.value for O=C(Cc1ccncc1)N1CCCC(C2=NC3(CCN(S(=O)(=O)CCc4cccc5ccccc45)CC3)C(=O)N2)C1 (stereo not shown) (field: cAMP production activity (%)) = 14

Entry Cc1cc(C(=O)N2CCC(O)(CF)CC2)cc(C)c1CCS(=O)(=O)N1CCC2(CC1)N=C(C1CCC(C)CC1)NC2=O (stereo not shown) ; cAMP production activity (%) = 96

cAMP production activity (%) reading for Cc1cc(C(=O)N2CCN(CCOCCO)CC2)ccc1CCS(=O)(=O)N1CCC2(CC1)N=C(c1cccc(C(F)(F)F)c1)NC2=O : 97

Lookup result for Cc1cc(NCCN(C)C)ccc1CCS(=O)(=O)N1CCC2(CC1)N=C(C1CCCCC1)NC2=O ; measured cAMP production activity (%): 81

So, Cc1cc(N2C(=O)CC[C@@H]2CN(C)C)cc(C)c1/C=C/S(=O)(=O)N1CCC2(CC1)N=C(c1cccc(OC(F)(F)F)c1)NC2=O ? Its cAMP production activity (%) was 82

For this compound ( Cc1cc(OC[C@H](O)CO)cc(C)c1CCS(=O)(=O)N1CCC2(CC1)N=C(C1CCC(CCC(F)(F)F)CC1)NC2=O (stereo partly shown) ), measured cAMP production activity (%) is 82

Lab note: measured cAMP production activity (%) of CCC1CCC(C2=NC3(CCN(S(=O)(=O)CCc4cc(Cl)c(NC(C)=O)cc4C)CC3)C(=O)N2)CC1 (stereo not shown) was 77

The measured cAMP production activity (%) associated with CNc1cc(C)c(CCS(=O)(=O)N2CCC3(CC2)N=C(C2CCCN2)NC3=O)c(C)c1 (stereo not shown) [Compound 1286, dihydrochloride] reads 35

The value of cAMP production activity (%) measured for the compound Cc1cc(C(=O)N2CC[C@@H](N(C)C)C2)cc(C)c1/C=C/S(=O)(=O)N1CCC2(CC1)N=C(c1cccc(OC(F)(F)F)c1)NC2=O turned out to be 64
